Target: Delta opioid receptor (DOR)
Experiment: cell-based or functional assay
Square brackets hold non-standard residues; d marks the D form. Phe(4-NO2) = N[C@@H](Cc1ccc([N+](=O)[O-])cc1)C(=O)O; Phe(4-Cl) = N[C@@H](Cc1ccc(Cl)cc1)C(=O)O; NMA = N-methylarginine; Sar = CNCC(=O)O
property: Activity (EC50, nM), cAMP assay

Some entries whose results are on file:
H-Y[Sar][Phe(4-NO2)]LRX-NH2 (not fully specified (residue 6); printed as NH2-Tyr-Sar-(4-NO2)Phe-Leu-Arg-NMA-NH2) [SEQ ID NO. 18: NH2-Tyr-Sar-(4-NO2)Phe-Leu-Arg-NMA-NH2] | > 10000 nM
H-Y[Sar][Phe(4-NO2)]L[NMA][dR]-NH2 [SEQ ID NO. 15: NH2-Tyr-Sar-(4-NO2)Phe-Leu-NMA-DArg-NH2] | 1320 nM
H-Y[Sar]FLR[dR]-NH2 [SEQ ID NO. 3: NH2-Tyr-Sar-Phe-Leu-Arg-DArg-NH2] | > 10000 nM

Next item in the queue.
Look up and report measured Activity (EC50, nM), cAMP assay for this entry: H-Y[Sar][Phe(4-Cl)]LR[dR]-NH2 [SEQ ID NO. 11: NH2-Tyr-Sar-(4-Cl)Phe-Leu-Arg-DArg-NH2]
> 10000 nM
